test: Growth inhibition of human LOXIMVI cells; assay type: functional; details: LOX IMVI
Recorded GI50 values for a group of molecules are listed next.
The reply should be a number in µM, with the unit left off.

Past entries and their recorded results:
C=C1C(=O)O[C@H]2[C@H]1CC/C(COC(=O)NCCN1CCCC1)=C\CC[C@@]1(C)O[C@@H]21 ... 7.88
C=C1C(=O)O[C@H]2[C@H]1CC/C(COC(=O)NCCN1CCOCC1)=C\CC[C@@]1(C)O[C@@H]21 ... 4.84
C/C1=C\CC[C@@]2(C)O[C@@H]2[C@H]2OC(=O)C(CN(C)C)[C@@H]2CC1 (stereo partly specified) [DIMETHYLAMINOPARTHENOLIDE] ... 10
C=C1C(=O)O[C@H]2[C@H]1CC/C(COC(=O)N1CCC(F)(F)CC1)=C\CC[C@@]1(C)O[C@@H]21 ... 2.23
C=C1C(=O)O[C@H]2[C@H]1CC/C(COC(=O)NCCc1ccccn1)=C\CC[C@@]1(C)O[C@@H]21 ... 4.96

Below: the item to evaluate.
Quick check: GI50 of C=C1C(=O)O[C@H]2[C@H]1CC/C(COC(=O)Nc1n[nH]c(SC)n1)=C\CC[C@@]1(C)O[C@@H]21 ?
1.95

* * *

system: MDA-MB-468; assay: Growth inhibition of human MDA-MB-468 cells; assay type: functional
readout: GI50 (nM)
The reply should be a number in nM, with the unit left off.

C=C1C(=O)O[C@H]2[C@H]1CC/C(COC(=O)Nc1n[nH]c(SC)n1)=C\CC[C@@]1(C)O[C@@H]21 ... 1290

Please state recorded GI50 (tested on MDA-MB-468) of C=C1C(=O)O[C@H]2[C@H]1CC/C(COC(=O)NCCN1CCCC1)=C\CC[C@@]1(C)O[C@@H]21
2300

* * *

assay: Growth inhibition of human RXF393 cells; format: functional; conditions: RXF 393
readout: GI50 (µM)
The reply should be a number in µM, with the unit left off.

Past entries and their recorded results:
C/C1=C\CC[C@@]2(C)O[C@@H]2[C@H]2OC(=O)C(CN(C)C)[C@@H]2CC1 (stereo partly specified) [DIMETHYLAMINOPARTHENOLIDE] ... 15.8
C=C1C(=O)O[C@H]2[C@H]1CC/C(COC(=O)NCCN1CCOCC1)=C\CC[C@@]1(C)O[C@@H]21 ... 3
C=C1C(=O)O[C@H]2[C@H]1CC/C(COC(=O)NCCc1ccccn1)=C\CC[C@@]1(C)O[C@@H]21 ... 2.22
C=C1C(=O)O[C@H]2[C@H]1CC/C(COC(=O)N1CCC(F)(F)CC1)=C\CC[C@@]1(C)O[C@@H]21 ... 1.2
C=C1C(=O)O[C@H]2[C@H]1CC/C(COC(=O)NCCN1CCCC1)=C\CC[C@@]1(C)O[C@@H]21 ... 4.08

Below: the item to evaluate.
Quick check: GI50 of C=C1C(=O)O[C@H]2[C@H]1CC/C(COC(=O)Nc1n[nH]c(SC)n1)=C\CC[C@@]1(C)O[C@@H]21 ?
0.9

* * *

system: T47D; assay: Growth inhibition of human T47D cells; format: functional
Recorded GI50 values for a group of compounds are listed next.
The reply should be a number in µM, with the unit left off.

Past entries and their recorded results:
C=C1C(=O)O[C@H]2[C@H]1CC/C(COC(=O)Nc1n[nH]c(SC)n1)=C\CC[C@@]1(C)O[C@@H]21 ... 2.23
C=C1C(=O)O[C@H]2[C@H]1CC/C(COC(=O)NCCc1ccccn1)=C\CC[C@@]1(C)O[C@@H]21 ... 6.19
C=C1C(=O)O[C@H]2[C@H]1CC/C(COC(=O)NCCN1CCCC1)=C\CC[C@@]1(C)O[C@@H]21 ... 4.86
C=C1C(=O)O[C@H]2[C@H]1CC/C(COC(=O)N1CCC(F)(F)CC1)=C\CC[C@@]1(C)O[C@@H]21 ... 3.07
C/C1=C\CC[C@@]2(C)O[C@@H]2[C@H]2OC(=O)C(CN(C)C)[C@@H]2CC1 (stereo partly specified) [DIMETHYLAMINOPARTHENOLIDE] ... 39.8

Below: the item to evaluate.
Quick check: GI50 of C=C1C(=O)O[C@H]2[C@H]1CC/C(COC(=O)NCCN1CCOCC1)=C\CC[C@@]1(C)O[C@@H]21 ?
6.32
